- Test system: MOLT-4 leukemia
- ASSAY_DETAILS: NCI-60 one-dose screen, 48 h
- EXPERIMENTAL_CONDITIONS: 10 µM unless noted
About 83,000 compounds went through this panel and 20% of them were active in at least one assay; those are over-represented in the sample as a whole. The source made the active and inactive calls. How the source made its calls: active means growth percent below 10; inactive means the rest.
The reply should name one outcome from 1 for active, 0 for inactive

Use the examples below as a reference point.
{"MOLECULE": "CCCN1CCN(c2ccc3nc(-c4ccc5nc(-c6cc(OC)c(OC)c(OC)c6)[nH]c5c4)[nH]c3c2)CC1", "CLASSIFICATION": 0}
{"MOLECULE": "CCNCCNc1cc(-c2ccc(Cl)cc2)c(C#N)c2nc3ccccc3n12", "CLASSIFICATION": 1}
{"MOLECULE": "CCOc1cccnc1/C=N/NC(N)=S", "CLASSIFICATION": 1}
{"MOLECULE": "Cc1c(C(N)=O)sc2nc(C)n(/N=c3\\scc(-c4ccccc4)n3Cc3ccccc3)c(=O)c12", "CLASSIFICATION": 0}
{"MOLECULE": "NC(=O)CC1(O)C=C(Br)C(=O)C(Br)=C1", "CLASSIFICATION": 1}

// next entry
[Q] Returns: the outcome recorded for COc1cc2cc(Oc3ccc(NC(=O)Nc4cc(C(F)(F)F)cc(C(F)(F)F)c4)cc3)c(C)nc2cc1OCCN1CCCCC1 in this assay.
[A] 1
